Value source: paper PMC6027465

Molecular target: MgCA (Malassezia globosa, UniProt A8Q1N3)
Sequence (A8Q1N3 1-241): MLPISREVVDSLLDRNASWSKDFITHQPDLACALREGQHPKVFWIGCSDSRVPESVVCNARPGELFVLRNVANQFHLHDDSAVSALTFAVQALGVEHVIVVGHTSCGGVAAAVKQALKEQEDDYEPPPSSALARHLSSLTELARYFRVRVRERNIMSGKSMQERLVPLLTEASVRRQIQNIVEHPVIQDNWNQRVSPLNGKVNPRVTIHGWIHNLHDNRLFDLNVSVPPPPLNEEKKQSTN
Catalogue of compounds with associated log10 of Ki
readout-kind: log10 of Ki (log10 of the value in µM)

- compound: "CCCNC(=O)c1ccc(S(N)(=O)=O)cc1 [3b, N-Propyl-4-Sulfamoylbenzamide]"
  system: "MgCA (Malassezia globosa, UniProt A8Q1N3)"
  log10 of Ki: 0.59
- compound: "C#CCNC(=O)c1ccc(S(N)(=O)=O)cc1 [3c, N-(Prop-2-Yn-1-Yl)-4-Sulfamoylbenzamide]"
  system: "MgCA (Malassezia globosa, UniProt A8Q1N3)"
  log10 of Ki: 0.76
- compound: "NS(=O)(=O)c1ccc(C(=O)N2CCOCC2)cc1"
  system: "MgCA (Malassezia globosa, UniProt A8Q1N3)"
  log10 of Ki: 0.77
- compound: "COC(=O)C[C@@H](NC(=O)c1ccc(S(N)(=O)=O)cc1)C(=O)OC"
  system: "MgCA (Malassezia globosa, UniProt A8Q1N3)"
  log10 of Ki: 0.84
- compound: "CCOC(=O)CCCNC(=O)c1ccc(S(N)(=O)=O)cc1 [3k, Ethyl 4-(4-Sulfamoylbenzamido)Butanoate]"
  system: "MgCA (Malassezia globosa, UniProt A8Q1N3)"
  log10 of Ki: 0.83
- compound: "COC(=O)CC[C@@H](NC(=O)c1ccc(S(N)(=O)=O)cc1)C(=O)OC"
  system: "MgCA (Malassezia globosa, UniProt A8Q1N3)"
  log10 of Ki: -0.20
- compound: "NS(=O)(=O)c1ccc(C(=O)N2CCCCC2)cc1"
  system: "MgCA (Malassezia globosa, UniProt A8Q1N3)"
  log10 of Ki: 0.60
- compound: "COC(=O)C(C)NC(=O)c1ccc(S(N)(=O)=O)cc1 (racemic) [3j, Methyl (4-Sulfamoylbenzoyl)-DL-Alaninate]"
  system: "MgCA (Malassezia globosa, UniProt A8Q1N3)"
  log10 of Ki: -1.06
- compound: "COC(=O)[C@H](Cc1ccccc1)NC(=O)c1ccc(S(N)(=O)=O)cc1"
  system: "MgCA (Malassezia globosa, UniProt A8Q1N3)"
  log10 of Ki: -0.29
- compound: "COC(=O)C(NC(=O)c1ccc(S(N)(=O)=O)cc1)C(C)C (racemic) [3f, Methyl (4-Sulfamoylbenzoyl)-DL-Valinate]"
  system: "MgCA (Malassezia globosa, UniProt A8Q1N3)"
  log10 of Ki: 0.74
- compound: "COC(=O)[C@H](CC(C)C)NC(=O)c1ccc(S(N)(=O)=O)cc1 [3h, Methyl (4-Sulfamoylbenzoyl)-L-Leucinate]"
  system: "MgCA (Malassezia globosa, UniProt A8Q1N3)"
  log10 of Ki: -0.12
- compound: "CCNC(=O)c1ccc(S(N)(=O)=O)cc1 [3a, N-Ethyl-4-Sulfamoylbenzamide]"
  system: "MgCA (Malassezia globosa, UniProt A8Q1N3)"
  log10 of Ki: 0.88
